Kindly state GI50 for each of the entries shown.
tested on: NCI-H226; assay: NCI tumour cell line growth inhibition, 48 h
Active and inactive are the calls of the source. Cut-off read from the data, not from the text of the source: active = GI50 up to about 1.1 µM and inactive = higher.

O=C1/C(=C/c2cccc([N+](=O)[O-])c2)CCCc2ccccc21 = 16.2 µM (inactive)
CC(C)CCCCCCCCCCCCC(=O)NCC(=O)NC1C(C)OC(Nc2ncnc3c2ncn3C)C(O)C1O (stereo not drawn) = 2.16 µM (inactive)

// switching to the query compound
QUERY: Recorded GI50 for "c1ccc(C2=Nn3c(CCCCCCCCc4nnc5n4N=C(c4ccccc4)CS5)nnc3SC2)cc1" , please?
RESULT: 72.1 µM (inactive)

* * *

tested on: SN12C; experiment: NCI tumour cell line growth inhibition, 48 h
The source made the active and inactive calls. Cut-off read from the data, not from the text of the source: active = GI50 up to about 1.1 µM and inactive = higher.
Outcomes you can answer with include only these: 1 = active, 0 = inactive

Cc1nc2ccc(Cl)cc2c(-n2ccnc2)c1CCn1ccnc1 = 0
c1ccc(/C(=N\Nc2nc3ccccc3[nH]2)c2ccccn2)cc1 = 1
CN(C)c1ncnc2c1ncn2CCn1cnc2c(N(C)C)ncnc21 = 0
C(=C/c1ccc2nc(-c3ccc(/C=C/C=N/NC4=NCCCN4)cc3)cn2c1)/C=N/NC1=NCCCN1 = 0
Cn1c2ccccc2c(=O)c2ccc(Cl)cc21 = 0

Now consider a different compound.
QUERY: Entry "COc1cc2nc(Nc3cccc(Br)c3)nc(Nc3cccc(Br)c3)c2cc1OC" : call = ?
RESULT: 0

* * *

system: HCT-116; assay: NCI tumour cell line growth inhibition, 48 h
Activity calls are given as the source filed them. Cut-off read from the data, not from the text of the source: active = GI50 up to about 1.1 µM and inactive = higher.
Outcomes you can answer with include only these: 1 (yes) (active), 0 (no) (inactive)

CCCCNC(=S)OCCC(C)CCCC(C)C (stereo not given) = 0 (no)
O=S(=O)(O)CCSSCCS(=O)(=O)O = 0 (no)
COc1cc2c(cc1OC)-c1[nH]c3ccc([N+](=O)[O-])cc3c1CC(=O)N2 = 1 (yes)
CN1CCCC(OC(=O)c2cc3cc(CCl)ccc3oc2=O)C1 (stereo not given) = 0 (no)
Cc1cc(O)nc(NNC(C#N)c2cccc(O)c2)n1 (stereo not given) = 0 (no)
O=C1/C(=C/c2cccc([N+](=O)[O-])c2)CCCc2ccccc21 = 0 (no)
C=C(NC(=O)C(=C)NC(=O)c1csc(C2=NC3c4csc(n4)C4NC(=O)c5csc(n5)C(C(C)(O)C(C)O)NC(=O)C5CSC(=N5)/C(=C/C)NC(=O)C(C(C)O)NC(=O)c5csc(n5)C3(CC2)NC(=O)C(C)NC(=O)C(=C)NC(=O)C(=C)NC(=O)C(C(C)C)NC2C=Cc3c(C(C)O)cc(nc3C2O)C(=O)OC4C)n1)C(N)=O (stereo not given) = 1 (yes)
c1ccc2c(c1)CCCN1CCc3ccccc3C21 (stereo not given) = 0 (no)

QUERY: Entry CCCCCC1=C2C(c3ccc(OC)cc3)=C(N)C(c3ccc(OC)cc3)=C3NC(=O)C(C=C1)C32 (stereo not given) : call = ?
RESULT: 0 (no)

QUERY: What about this compound? "O=C1CCCC(O)=C1SC1=C(O)CCCC1=O"
RESULT: 0 (no)

* * *

Kindly state GI50 for each of the entries shown.
tested on: CCRF-CEM; test: NCI tumour cell line growth inhibition, 48 h
Active and inactive are the calls of the source. No stated cut-off is given here; in the data, active = GI50 up to about 1.1 µM and inactive = higher.

O=C(N/N=C(/c1ccccc1)C(F)(F)F)c1ccncc1 = 76 µM (inactive)

Field: GI50. Fill in for each record below.
1. Cc1ccc([S+]([O-])c2ccccc2[N+](=O)[O-])cc1 (stereo not given)
2. Cc1ccc(OCC2OC(C#N)C(Oc3ccc(C)cc3)C2Oc2ccc(C)cc2)cc1 (stereo not given)
3. O=Cc1cn(C(=O)c2ccccc2)c2ccccc12
4. COc1ccc(/C(Cl)=C(\CN(C)C)c2ccc(OC)c(OC)c2)cc1OC.[B]

RESULT:
1: 28.6 µM (inactive); 2: > 100 µM (inactive); 3: 43.2 µM (inactive); 4: > 100 µM (inactive)

* * *

tested on: 786-0; assay: NCI tumour cell line growth inhibition, 48 h
Activity calls are given as the source filed them. Cut-off read from the data, not from the text of the source: active = GI50 up to about 1.1 µM and inactive = higher.
Outcomes you can answer with include only these: active, inactive

Worked examples, 2 molecules total:
COc1ccc([C@H]2CC(=O)C[C@H](c3ccc(OC)cc3OC)C23C(=O)c2ccccc2C3=O)c(OC)c1 = inactive
O=C(/C=C/c1ccc2c(c1)OCO2)Cc1nc2ncccc2[nH]c1=O = inactive

QUERY: Entry "Clc1cc(Br)c2c3c(c(Br)cc(Cl)c13)C(Br)=C2Br" : call = ?
RESULT: inactive

QUERY: What about this molecule? COC(COC(=O)N1CCN(C=O)CC1)C1=C(N2CC2)C(=O)C(C)=C(N2CC2)C1=O (stereo not drawn)
RESULT: active

* * *

tested on: HT-29; test: NCI tumour cell line growth inhibition, 48 h
Activity calls are given as the source filed them. No stated cut-off is given here; in the data, active = GI50 up to about 1.1 µM and inactive = higher.
Outcomes you can answer with include only these: active, inactive

ClC1=NN=C(c2c[nH]c3ccccc23)CC1NCc1ccccc1 (configuration not stated) = inactive
CC1OC2/C=C\CC(O)C(C)(C)C3CCC(C)C4(O3)O[B-]35OC(C(=O)OC1C2)C1(OC(CCC1C)C(C)(C)C(O)C/C=C\C1CC(OC(=O)C4O3)C(C)O1)O5 (configuration not stated) = inactive
COc1ccc(/C(Cl)=C(\CN(C)C)c2ccc(OC)c(OC)c2)cc1OC.[B] = inactive
O=C1CCC2(c3ccc(Cl)cc3)Nc3ccncc3N12 (configuration not stated) = inactive
COc1ccc(CNc2nc3ccccc3nc2C(=O)O)cc1OC = inactive

QUERY: Entry "COc1ccc(/N=C2/SC(=N/N=c3\sc4ccccc4n3C)S/C2=N/c2ccc(OC)cc2)cc1" : call = ?
RESULT: inactive

QUERY: What about this compound? "CCN(CC)CC(=O)NC1c2ccccc2Oc2ccccc21"
RESULT: inactive

QUERY: What about this compound? CCCCNC(=S)OCCC(C)CCCC(C)C (configuration not stated)
RESULT: inactive

QUERY: What about this compound? "C[C@@H](c1ccccc1)N1CO[C@@]2(C#Cc3ccc4c(c3)OCO4)CCC[C@@H]12"
RESULT: inactive

QUERY: What about this compound? "Nc1cc(Cl)cc2cc(Cl)cnc12"
RESULT: inactive

QUERY: What about this compound? O=C(Nc1ccccc1)C(=O)C(C(=O)c1ccccc1F)C1OC(=O)c2ccccc21 (configuration not stated)
RESULT: inactive

* * *

test system: SF-295; test: NCI tumour cell line growth inhibition, 48 h
Calls of active or inactive are those of the source. Cut-off read from the data, not from the text of the source: active = GI50 up to about 1.1 µM and inactive = higher.
resultType: GI50

[N-]=[N+]=NC1(c2ccccc2)C(=O)c2cccc3c2N(CCC3)C1=O (centres undefined) = 34.5 µM (inactive)

Field: GI50. Fill in for each record below.
1. Cc1cc(Cl)ccc1NC(=O)C(=O)Cc1nc2ccc(C(=O)c3ccccc3)cc2nc1O
2. CCOC(=O)C(C)(C)Oc1ccc(/C=C/C(=O)c2ccc(Cl)cc2)cc1
3. O=C1c2ccccc2-c2c1c1ccccc1c(=O)n2-c1ccccc1

RESULT:
1: 95.1 µM (inactive); 2: 21 µM (inactive); 3: 10.1 µM (inactive)

* * *

tested on: U-251; assay: NCI tumour cell line growth inhibition, 48 h
Activity calls are given as the source filed them. No stated cut-off is given here; in the data, active = GI50 up to about 1.1 µM and inactive = higher.
Outcomes you can answer with include only these: active, inactive

CN1CCN(c2ccc3[nH]c(-c4ccc5[nH]c(-c6ccc(O)cc6)nc5c4)nc3c2)CC1 = inactive
O=C1c2c(ccc3c2CCCC3)CC12Cc1ccccc1C2 = inactive
O=C(c1ccc(O)cc1O)C1C(c2ccc(O)cc2)OC(c2ccc(O)cc2)C1C(=O)c1ccc(O)cc1O (configuration not stated) = inactive
CCCCCCCCCCCCCCCCCCNc1ccn(C2OC(COP(=O)(O)OCC3OC(n4cc(C)c(=O)[nH]c4=O)CC3O)C(O)C2O)c(=O)n1 (configuration not stated) = inactive
CCCCNC(=S)OCCC(C)CCCC(C)C (configuration not stated) = inactive

QUERY: Entry "O=C(CNc1ccccc1Cl)Nn1c(-c2ccccc2)nc2ccccc2c1=O" : call = ?
RESULT: inactive

QUERY: What about this molecule? "C=CCSc1nn(CC=C)cc2ncnc1-2"
RESULT: inactive

QUERY: What about this molecule? COC(COC(=O)N1CCN(C=O)CC1)C1=C(N2CC2)C(=O)C(C)=C(N2CC2)C1=O (configuration not stated)
RESULT: active

QUERY: What about this molecule? "CN(C)CCNC(=O)c1cccc(N(C)C(=O)c2ccccc2)c1[N+](=O)[O-]"
RESULT: inactive

QUERY: What about this molecule? "CS(=O)(=O)C1S(=O)(=O)OCCOS1(=O)=O"
RESULT: inactive

QUERY: What about this molecule? "CCOC(=O)/C=C\[C@H]1OC(C)(C)O[C@H]1[C@H](O)[C@H]1COC(C)(C)O1"
RESULT: inactive

* * *

Kindly state GI50 for each of the entries shown.
tested on: EKVX; test: NCI tumour cell line growth inhibition, 48 h
Calls of active or inactive are those of the source. Cut-off read from the data, not from the text of the source: active = GI50 up to about 1.1 µM and inactive = higher.

Here are 2 molecules together with their reported answers.
c1ccc(C2C3=C(CCCC3)Nc3nc4cc5ccccc5cc4n32)cc1 (stereo not drawn) = > 100 µM (inactive)
COc1ccc(-c2cc(-c3cc(F)c(Cl)cc3Cl)on2)cc1OC = 75.5 µM (inactive)

// switching to the query molecule
QUERY: Recorded GI50 for C[C@@H]1OC(=O)C[C@H]2CC(=O)N(CCC3CN(C(=O)c4ccccc4)c4ccccc43)C[C@@H]21 (stereo partly drawn) , please?
RESULT: > 100 µM (inactive)
